- target_desc: Bevacizumab (Homo sapiens)
- Construct: 0.5 mg/ml IgG in PBS pH 7.3; ligand immobilized on SEPHAR; Bevacizumab Yield; other: mass eluted (glycine pH 2.5) / mass injected; kd (dissociation constant, Langmuir isotherm); other: Bevacizumab 0.05-5 mg/ml in PBS pH 7.3, 25° C., at least 3 h; qm (maximum capacity); other: mg Bevacizumab per ml of resin; Langmuir isotherm; t0; fused on or other part: Humanized anti-VEGF-A VH domain joined N-terminally to the IGHG1 constant region (engineered, no UniProt entry)
- method: Langmuir isotherms by batch adsorption
- Type: binding
- recorded_conditions: Bevacizumab 0.05-5 mg/ml in PBS pH 7.3, 25° C., at least 3 h; read-out: kd (dissociation constant, Langmuir isotherm) (converted)
Cut-off 300 µM on Kd: below means t, at or above means f.

A selection of reference data follows.
Cc1nc2cc(C(=O)Nc3nc(-c4ccccn4)cs3)ccc2n1CCCN [Ligand L42] :: f
NCCCNc1ccc(C(=O)Nc2nnc(-c3ccco3)s2)cn1 [Ligand L19] :: f
Cc1nsc(NC(=O)c2ccc3c(c2)ncn3CCCN)n1 [Ligand L36] :: f
Cn1nc(NC(=O)c2ccc3c(c2)ncn3CCCN)c2ccccc21 [Ligand L02] :: f

### Prompt Find out if reported Kd for N[C@@H](CCC(=O)NCCOCCOCCn1cnc2cc(C(=O)Nc3nnc(-c4ccco4)s3)ccc21)C(=O)NCCOCCOCCn1cnc2cc(C(=O)Nc3nnc(-c4ccco4)s3)ccc21 [Ligand L53] is less than 300 µM
### Response t

### Prompt Find out if reported Kd for Cc1nnc(NC(=O)c2ccc3c(c2)ncn3CCCN)s1 [Ligand L14] is less than 300 µM
### Response t

### Prompt Find out if reported Kd for Cc1nc2cc(C(=O)Nc3nnc(-c4ccco4)s3)ccc2n1CCOCCOCCN is less than 300 µM
### Response f

### Prompt Find out if reported Kd for NCCCn1cnc2cc(C(=O)Nc3nc(-c4cccnc4)cs3)ccc21 [Ligand L46] is less than 300 µM
### Response t

### Prompt Find out if reported Kd for CCc1nc2cc(C(=O)Nc3nnc(-c4ccco4)s3)ccc2n1CCCN [Ligand L44] is less than 300 µM
### Response t

### Prompt Find out if reported Kd for CCc1nc2cc(C(=O)Nc3nc(-c4ccccn4)cs3)ccc2n1CCCN [Ligand L43] is less than 300 µM
### Response f

### Prompt Find out if reported Kd for Cn1c(CCCCCN)nc2cc(C(=O)Nc3nnc(-c4ccco4)s3)ccc21 [Ligand L31] is less than 300 µM
### Response t

----------
- target_desc: Bevacizumab (Homo sapiens)
- Construct: 0.5 mg/ml IgG in PBS pH 7.3; ligand immobilized on SEPHAR; Bevacizumab Yield; other: mass eluted (glycine pH 2.5) / mass injected; kd (dissociation constant, Langmuir isotherm); other: Bevacizumab 0.05-5 mg/ml in PBS pH 7.3, 25° C., at least 3 h; qm (maximum capacity); other: mg Bevacizumab per ml of resin; Langmuir isotherm; t0; fused on or other part: Humanized anti-VEGF-A VH domain joined N-terminally to the IGHG1 constant region (engineered, no UniProt entry)
- method: Microtiter plate chromatography of resins: binding and elution of Bevacizumab
- recorded_conditions: L55-73: estimated values based on the knowledge obtained from L01-L54
property_name: Bevacizumab Yield

Worked cases, answers included:
CCc1nc2cc(C(=O)Nc3nc(-c4ccco4)ns3)ccc2n1CCCN :: >80%
Cc1nc2cc(C(=O)Nc3ncc(-c4ccco4)s3)ccc2n1CCCN :: >80%
NCCCn1cnc2cc(C(=O)Nc3ccc(-c4ccco4)nn3)ccc21 :: >80%
NCCCn1cnc2cc(C(=O)Nc3nc(-c4ccco4)cs3)ccc21 :: >80%
Cc1nc2cc(C(=O)Nc3nc(-c4ccco4)cs3)ccc2n1CCCN :: >80%

### Prompt Find the measured Bevacizumab Yield: item CCc1nc2cc(C(=O)Nc3nc(-c4ccco4)cs3)ccc2n1CCCN , target or system Bevacizumab (Homo sapiens).
### Response >80%

### Prompt Find the measured Bevacizumab Yield: item Cc1nc2cc(C(=O)Nc3nnc(-c4cnco4)s3)ccc2n1CCCN , target or system Bevacizumab (Homo sapiens).
### Response >80%

### Prompt Find the measured Bevacizumab Yield: item CCc1nc2cc(C(=O)Nc3nnc(-c4ccoc4)s3)ccc2n1CCCN , target or system Bevacizumab (Homo sapiens).
### Response >80%

### Prompt Find the measured Bevacizumab Yield: item Cc1nc2cc(C(=O)Nc3nc(-c4ccco4)ns3)ccc2n1CCCN , target or system Bevacizumab (Homo sapiens).
### Response >80%

### Prompt Find the measured Bevacizumab Yield: item CCc1nc2cc(C(=O)Nc3ccc(-c4ccco4)nn3)ccc2n1CCCN , target or system Bevacizumab (Homo sapiens).
### Response >80%

### Prompt Find the measured Bevacizumab Yield: item Cc1nc2cc(C(=O)Nc3ccc(-c4ccco4)nn3)ccc2n1CCCN , target or system Bevacizumab (Homo sapiens).
### Response >80%

### Prompt Find the measured Bevacizumab Yield: item Cc1nc2cc(C(=O)Nc3nnc(-c4ncco4)s3)ccc2n1CCCN , target or system Bevacizumab (Homo sapiens).
### Response >80%

### Prompt Find the measured Bevacizumab Yield: item CCc1nc2cc(C(=O)Nc3ncc(-c4ccco4)s3)ccc2n1CCCN , target or system Bevacizumab (Homo sapiens).
### Response >80%

### Prompt Find the measured Bevacizumab Yield: item NCCCn1cnc2cc(C(=O)Nc3nc(-c4ccco4)ns3)ccc21 , target or system Bevacizumab (Homo sapiens).
### Response >80%

### Prompt Find the measured Bevacizumab Yield: item NCCCn1cnc2cc(C(=O)Nc3nnc(-c4ccoc4)s3)ccc21 , target or system Bevacizumab (Homo sapiens).
### Response >80%

### Prompt Find the measured Bevacizumab Yield: item Cc1nc2cc(C(=O)Nc3nnc(-c4ccoc4)s3)ccc2n1CCCN , target or system Bevacizumab (Homo sapiens).
### Response >80%
